Organism: Rattus norvegicus
Assay: DrugMatrix - Regimen: Daily Repeat
Type: toxicity, organism-based, Sprague-Dawley
Parameters: regimen Daily Repeat, gender Male, age 6-8 weeks
Details: in vivo, po, 1500 mg/kg, 120 h, tissue Plasma, route oral GAVAGE, dose level High, time 5 day, vehicle .5 % CMC
Criterion: ALANINE AMINOTRANSFERASE strictly less than 60 u/L. Met: satisfied. Not met: not satisfied.

Please review the entries below; each comes with its answer.
COc1cc(/C=C/C(=O)O)ccc1O [FERULATE]; not satisfied
O=C(O)CCc1nc(-c2ccccc2)c(-c2ccccc2)o1 [OXAPROZIN]; not satisfied
COc1ccc(Cl)cc1C(=O)NCCc1ccc(S(=O)(=O)NC(=O)NC2CCCCC2)cc1 [GLYBURIDE]; satisfied
CC[C@H]1OC(=O)[C@H](C)[C@@H](O[C@H]2C[C@@](C)(OC)[C@@H](O)[C@H](C)O2)[C@H](C)[C@@H](O[C@@H]2O[C@H](C)C[C@H](N(C)C)[C@H]2O)[C@](C)(O)C[C@@H](C)C(=O)[C@H](C)[C@@H](O)[C@]1(C)O [ERYTHROMYCIN]; not satisfied

# TODO verify ALANINE AMINOTRANSFERASE < 60 u/L strictly for this compound: Cc1ccc(S(=O)(=O)NC(=O)NN2CCCCCC2)cc1 [TOLAZAMIDE]
satisfied
